# ASSAYED_SYSTEM: GRK6, recombinant full-length GST-tagged human protein (Homo sapiens)
# Construct: GRK6, recombinant full-length GST-tagged human protein; GST
# Sequence (P43250 whole entry): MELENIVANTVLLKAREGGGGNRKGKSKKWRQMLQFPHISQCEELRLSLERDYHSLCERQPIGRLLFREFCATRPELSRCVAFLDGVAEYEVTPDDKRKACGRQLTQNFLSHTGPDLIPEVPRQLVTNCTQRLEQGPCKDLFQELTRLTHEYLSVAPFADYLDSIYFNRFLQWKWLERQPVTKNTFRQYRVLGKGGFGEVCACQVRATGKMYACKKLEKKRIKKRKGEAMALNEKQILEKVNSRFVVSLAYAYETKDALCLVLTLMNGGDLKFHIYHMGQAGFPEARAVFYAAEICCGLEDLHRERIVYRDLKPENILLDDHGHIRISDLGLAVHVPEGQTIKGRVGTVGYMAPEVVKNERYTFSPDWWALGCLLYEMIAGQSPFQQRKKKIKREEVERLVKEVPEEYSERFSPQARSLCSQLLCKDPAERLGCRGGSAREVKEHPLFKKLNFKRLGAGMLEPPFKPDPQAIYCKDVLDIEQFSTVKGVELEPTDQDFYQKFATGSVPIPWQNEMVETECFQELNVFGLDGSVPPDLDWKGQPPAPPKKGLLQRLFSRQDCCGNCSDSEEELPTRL
# EXPERIMENT_SUMMARY: GRK6 IC50 determination (8-point concentration-response)
# Assay type: biochemical
# Text: Two hundred forty compounds were further characterized by determining IC50 values in a GRK6 assay. This screen has been previously described in WO 2013/063458, which is incorporated by reference in its entirety herein.
pIC50: −log10 of the molar value.
Reported values of pIC50 for individual entries

SMILES_STR: O=C(O)CSc1nnc(-c2cc(-c3cccc4[nH]ccc34)cc([N+](=O)[O-])c2)[nH]1
RELATION_SYMBOL: =
pIC50: 7.00
--
SMILES_STR: CC(C)CNC(=O)c1cc(-c2nnc(SCC(=O)O)[nH]2)cc([N+](=O)[O-])c1
RELATION_SYMBOL: =
pIC50: 5.56
--
SMILES_STR: CCn1ccc2cc(-c3cc(-c4nnc(SCC(=O)O)[nH]4)cc([N+](=O)[O-])c3)ccc21
RELATION_SYMBOL: =
pIC50: 6.93
--
SMILES_STR: O=C(O)CSc1nnc(-c2cc(-c3cccc(-c4cc[nH]n4)c3)cc([N+](=O)[O-])c2)[nH]1
RELATION_SYMBOL: =
pIC50: 7.03
--
SMILES_STR: Cn1nccc1-c1cc(-c2nnc(SCC(=O)O)[nH]2)cc([N+](=O)[O-])c1
RELATION_SYMBOL: =
pIC50: 5.98
--
SMILES_STR: CS(=O)(=O)c1cccc(-c2cc(-c3nnc(SCC(=O)O)[nH]3)cc([N+](=O)[O-])c2)c1
RELATION_SYMBOL: =
pIC50: 6.11
--
SMILES_STR: O=C(O)CSc1nnc(-c2cccc(C(=O)Nc3ccc(Cl)cc3)c2)[nH]1
RELATION_SYMBOL: =
pIC50: 4.93
--
SMILES_STR: O=C(O)CSc1nnc(-c2cc(-c3ccc4scnc4c3)cc([N+](=O)[O-])c2)[nH]1
RELATION_SYMBOL: =
pIC50: 6.74
--
SMILES_STR: O=C(O)CSc1nnc(-c2cc3c(cc2[N+](=O)[O-])OCO3)[nH]1
RELATION_SYMBOL: <
pIC50: 4.24
--
SMILES_STR: O=C(O)CSc1nnc(-c2cccc(C(=O)Nc3ccc4c(c3)NC(=O)CC4)c2)[nH]1
RELATION_SYMBOL: =
pIC50: 4.76
--
SMILES_STR: Cn1ncc2cc(-c3cc(-c4nnc(SCC(=O)O)[nH]4)cc([N+](=O)[O-])c3)ccc21
RELATION_SYMBOL: =
pIC50: 6.74
--
SMILES_STR: O=C(O)CSc1nnc(-c2cccc(C(=O)Nc3ccc4c(c3)NC(=O)C4)c2)[nH]1
RELATION_SYMBOL: =
pIC50: 5.48
--
SMILES_STR: O=C(O)CSc1nnc(-c2cc(-c3ccc4nccnc4c3)cc([N+](=O)[O-])c2)[nH]1
RELATION_SYMBOL: =
pIC50: 6.29
--
SMILES_STR: Cc1noc(C)c1-c1cc(-c2ccc3ccccc3c2)cc(-c2nnc(SCC(=O)O)[nH]2)c1
RELATION_SYMBOL: =
pIC50: 5.99
--
SMILES_STR: O=C(O)CSc1nnc(-c2cccc(C(=O)Nc3cccc4[nH]ccc34)c2)[nH]1
RELATION_SYMBOL: =
pIC50: 5.01
--
SMILES_STR: Cn1cc(Cl)c2cc(-c3cc(-c4n[nH]c(SCC(=O)O)n4)cc([N+](=O)[O-])c3)ccc21
RELATION_SYMBOL: =
pIC50: 7.22
